# assay name: Volume of distribution at steady state in Wistar rat at 1 mg/kg, iv by LC-MS/MS analysis
# Format: ADME, organism-based
# condition notes: in vivo, read-out: Vdss
value type: Vd
Dear colleague, please send the value followed by its unit.

Request: Return reported Vd; argument: `CCn1c2ccccc2c2cc(-c3nc4c(C)c(C(=O)O)ccc4n3CCOC)ccc21`
Response: 0.36 L/kg

###

# target or test system: Prostaglandin E2 receptor EP4 subtype (Homo sapiens)
# assay name: Antagonist activity at human EP4R assessed as inhibition of agonist-induced cAMP production by fluorescent cAMP tracer cAMP-d2 based FRET assay
Label key: fulfilled means IC50 under 50 nM; not fulfilled means IC50 of 50 nM or more.

Take a look at these entries with their results.
> print(dat)
                                smiles.repr       category
1  CCn1c2ccccc2c2cc(-c3nc4cc(C(=O)O)c(Cl)cc4n3CCOC)ccc21  not fulfilled
2  CCn1c2ccccc2c2cc(-c3nc4cc(C(=O)O)ccc4n3CC3CC3)ccc21      fulfilled
3  CCn1c2ccc(-c3nc4c(C)c(C(=O)O)ccc4n3CCOC)cc2c2cc(C(F)(F)F)ccc21      fulfilled
4  CCn1c2ccccc2c2cc(-c3nc4cc(C(=O)O)ccc4n3-c3ccccc3)ccc21  not fulfilled
5  CCn1c2ccc(-c3nc4c(C)c(C(=O)O)ccc4n3CCOC)cc2c2c(Cl)cccc21  not fulfilled
6  CCn1c2ccc(-c3nc4c(C)c(C(=O)O)ccc4n3CCOC)cc2c2c(C)cccc21  not fulfilled

Request: Take the compound `CCn1c2ccccc2c2cc(-c3nc4cc(C(=O)O)ccc4n3C)ccc21` and say whether its IC50 is less than 50 nM.
Response: not fulfilled

Request: Take the compound `CCn1c2ccccc2c2cc(-c3nc4c(F)c(C(=O)O)ccc4n3CCOC)ccc21` and say whether its IC50 is less than 50 nM.
Response: fulfilled

###

# assay name: Apparent permeability from apical to basolateral side in human Caco2 cells at 2 uM after 2 hrs by LC/MS/MS analysis
# Format: ADME, cell-based
# condition notes: Caco-2
Reported Papp A→B at 2 h, 2 µM values for the following compounds.
I only need the number, in ×10⁻⁶ cm/s, no unit after it.

Request: Return reported Papp A→B at 2 h, 2 µM; argument: `CCn1c2ccccc2c2cc(-c3nc4cc(-c5noc(=O)[nH]5)ccc4n3CCOC)ccc21`
Response: 2.63

Request: Return reported Papp A→B at 2 h, 2 µM; argument: `CCn1c2ccccc2c2cc(-c3nc4c(C)c(C(=O)O)ccc4n3CCOC)ccc21`
Response: 13.5

Request: Return reported Papp A→B at 2 h, 2 µM; argument: `CCn1c2ccc(Cl)cc2c2cc(-c3nc4c(C)c(C(=O)O)ccc4n3CCOC)ccc21`
Response: 20.8

Request: Return reported Papp A→B at 2 h, 2 µM; argument: `CCn1c2ccccc2c2cc(-c3nc4cc(-c5n[nH]c(=O)o5)ccc4n3CCOC)ccc21`
Response: 1.24

###

# target or test system: Prostaglandin E2 receptor EP4 subtype (Homo sapiens, UniProt P35408)
# Sequence (P35408 whole entry): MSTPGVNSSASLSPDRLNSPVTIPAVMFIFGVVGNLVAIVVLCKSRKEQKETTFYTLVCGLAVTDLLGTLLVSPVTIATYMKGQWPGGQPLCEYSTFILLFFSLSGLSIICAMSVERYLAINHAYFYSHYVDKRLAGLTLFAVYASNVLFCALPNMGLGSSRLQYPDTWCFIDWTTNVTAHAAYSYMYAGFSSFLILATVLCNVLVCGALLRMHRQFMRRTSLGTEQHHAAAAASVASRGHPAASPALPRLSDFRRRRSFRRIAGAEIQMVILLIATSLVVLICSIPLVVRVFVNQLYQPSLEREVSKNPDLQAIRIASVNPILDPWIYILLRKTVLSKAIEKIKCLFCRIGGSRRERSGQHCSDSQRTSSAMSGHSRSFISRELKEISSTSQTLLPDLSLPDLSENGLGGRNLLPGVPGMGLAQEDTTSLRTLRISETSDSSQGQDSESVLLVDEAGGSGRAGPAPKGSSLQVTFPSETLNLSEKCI
# assay name: Antagonist activity at human EP4R assessed as inhibition of agonist-induced cAMP production by fluorescent cAMP tracer cAMP-d2 based FRET assay
value type: pIC50
pIC50 (log units): -log10 of the concentration in mol/L.

Request: Return reported pIC50; argument: `CCn1c2ccc(-c3nc4c(C)c(C(=O)O)ccc4n3CCOC)cc2c2cccc(C)c21`
Response: 8.38

Request: Return reported pIC50; argument: `CCn1c2ccccc2c2cc(-c3nc4cc(S(=O)(=O)O)ccc4n3CCOC)ccc21`
Response: 6.65

Request: Return reported pIC50; argument: `CCn1c2ccccc2c2cc(-c3nc4c(Cl)c(C(=O)O)ccc4n3CCOC)ccc21`
Response: 7.80

Request: Return reported pIC50; argument: `CCn1c2ccccc2c2cc(-c3nc4cc(C(=O)NS(=O)(=O)N(C)C)ccc4n3CCOC)ccc21`
Response: 6.83

Request: Return reported pIC50; argument: `CCn1c2ccccc2c2cc(-c3nc4ccc(C(=O)O)cc4n3CCOC)ccc21`
Response: 5.85

Request: Return reported pIC50; argument: `CCn1c2ccccc2c2cc(-c3nc4c(C)c(C(=O)O)ccc4n3CCOC)ccc21`
Response: 7.61

Request: Return reported pIC50; argument: `CCn1c2ccccc2c2cc(-c3nc4cc(-c5nnn[nH]5)ccc4n3CCOC)ccc21`
Response: 8.17

Request: Return reported pIC50; argument: `CCn1c2ccc(OC(F)(F)F)cc2c2cc(-c3nc4c(C)c(C(=O)O)ccc4n3CCOC)ccc21`
Response: 6.44

Request: Return reported pIC50; argument: `CCn1c2ccccc2c2cc(-c3nc4cc(C(=O)O)ccc4n3CCOC)ccc21`
Response: 8.33

Where these numbers come from: ChEMBL document CHEMBL4480399
